The measurements presented in this section are drawn from patent US11851410B2.

# System: DOPS (PS) negatively charged vesicles
# PROTOCOL: Serial dilution vesicle fluorescence intensity experiments, PS vesicles
# Type: binding
# Parameters: unit not given here
# RECORDED_CONDITIONS: 5% PS vesicles, 20 μM vesicles; sensor 25 μM (PSVue™380 1 μM); 50 mM HEPES, 5% DMSO, pH 7.5
Kind request: treat 3 as inclusive, so ΔΔFI at 3 or higher is t, anything lower is f.

>>> label_value("c1cc2ccc3ccc(CCCCN4CCNCCNCCNCC4)c4ccc(c1)c2c34 [I-2]")
"t"
>>> label_value("c1cc2ccc3ccc(CN4CCCNCCNCCCNCC4)c4ccc(c1)c2c34 [I-3]")
"t"
>>> label_value("c1ccc(CN(CCCCc2ccc3ccc4cccc5ccc2c3c45)Cc2ccccn2)nc1 [I-6]")
"f"
>>> label_value("c1cc2ccc3ccc(CN4CCNCCNCCNCC4)c4ccc(c1)c2c34 [I-1]")
"f"
>>> label_value("c1cc2ccc3ccc(CCCCN4CCCNCCNCCCNCC4)c4ccc(c1)c2c34 [I-4]")
"t"
>>> label_value("c1ccc(CN(Cc2ccccn2)Cc2ccc3ccc4cccc5ccc2c3c45)nc1 [I-5]")
"f"

====

# System: DOPS (PS) negatively charged vesicles
# PROTOCOL: Serial dilution vesicle fluorescence intensity experiments, PS vesicles
# Format: binding
# Design: unit not given here
# RECORDED_CONDITIONS: 75% PS vesicles, 20 μM vesicles; sensor 25 μM (PSVue™380 1 μM); 50 mM HEPES, 5% DMSO, pH 7.5
MEASUREMENT_LABEL: ΔΔFI

>>> assay_result("c1cc2ccc3ccc(CN4CCCNCCNCCCNCC4)c4ccc(c1)c2c34")
15.6
>>> assay_result("c1cc2ccc3ccc(CN4CCNCCNCCNCC4)c4ccc(c1)c2c34")
9.4
>>> assay_result("c1ccc(CN(CCCCc2ccc3ccc4cccc5ccc2c3c45)Cc2ccccn2)nc1")
7.5
>>> assay_result("c1ccc(CN(Cc2ccccn2)Cc2ccc3ccc4cccc5ccc2c3c45)nc1")
16.7
>>> assay_result("c1cc2ccc3ccc(CCCCN4CCCNCCNCCCNCC4)c4ccc(c1)c2c34")
16.7
>>> assay_result("c1cc2ccc3ccc(CCCCN4CCNCCNCCNCC4)c4ccc(c1)c2c34")
11.7

====

# System: TOCL (CL) negatively charged vesicles
# PROTOCOL: Serial dilution vesicle fluorescence intensity experiments, CL vesicles
# Assay type: binding
# Parameters: unit not given here
# RECORDED_CONDITIONS: CL vesicles (50%), 20 μM vesicles; sensor 25 μM (PSVue™380 1 μM); 50 mM HEPES, 5% DMSO, pH 7.5
MEASUREMENT_LABEL: ΔΔFI

>>> assay_result("c1cc2ccc3ccc(CCCCN4CCCNCCNCCCNCC4)c4ccc(c1)c2c34")
16.3
>>> assay_result("c1cc2ccc3ccc(CCCCN4CCNCCNCCNCC4)c4ccc(c1)c2c34")
12
>>> assay_result("c1cc2ccc3ccc(CN4CCNCCNCCNCC4)c4ccc(c1)c2c34")
10.6
>>> assay_result("c1ccc(CN(CCCCc2ccc3ccc4cccc5ccc2c3c45)Cc2ccccn2)nc1")
4.3
>>> assay_result("c1cc2ccc3ccc(CN4CCCNCCNCCCNCC4)c4ccc(c1)c2c34")
10.2
>>> assay_result("c1ccc(CN(Cc2ccccn2)Cc2ccc3ccc4cccc5ccc2c3c45)nc1")
15.9
